# Target under test: recombinant human PALS1 PDZ (residues 255-336) (Homo sapiens)
# Measurement description: biochemical
# Type: binding
No end group written: not given here.
Property name: Kd (µM)
Respond with the bare value in µM.

Chain | Unit info | Kd
EGVPDLLV [SARS-CoV-2 PBM] | µM | 22.8

Turning to the following sequence.
Query: # query: Kd of entry SRVPDLLV [SARS-CoV-1 PBM]
Result: 29.6
